# Organism: Homo sapiens
# assayProtocol: Selectivity ratio of EC50 for human oxytocin receptor to EC50 for human vasopressin V1a receptor
Numbered stars: 1 amine (or outer) side, 2 acyl side, 3 side chain; on linkers, the order of the positions; unused ones are H or OH. Bridge positions count the residues as written; N and C are the ends. Square brackets hold non-standard residues; d marks the D form. Peptide text beside a SMILES is read from it. * marks the point of attachment. X4 = CONC(=O)CC[C@H](N[*:1])C(=O)[*:2]; Orn(iPr) = CC(C)NCCC[C@H](N)C(=O)O; 3Pal = N[C@@H](Cc1cccnc1)C(=O)O; 2Thi = N[C@@H](Cc1cccs1)C(=O)O; Cha = N[C@@H](CC1CCCCC1)C(=O)O; Orn = NCCC[C@H](N)C(=O)O; Dab = NCC[C@H](N)C(=O)O; N(Me)OMe = CON(C)*; NHOH = ON*
observationType: Ratio EC50

{"columns": ["compound", "result"],
 "data": [
  ["CC[C@H](C)[C@@H]1NC(=O)[C@H](CC2CCCCC2)NC(=O)[C@@H](N)CSSC[C@@H](C(=O)N2CCC[C@H]2C(=O)N[C@@H](CCCN)C(=O)NCC(N)=O)NC(=O)[C@H](CC(N)=O)NC(=O)[C@H](CC(N)=O)NC1=O (H-C[Cha]INNCP[Orn]G-NH2; disulfide 1-6)", "> 3100"],
  ["CC[C@H](C)[C@@H]1NC(=O)[C@H](Cc2ccccc2)NC(=O)[C@@H](N)CSSC[C@@H](C(=O)N2CCC[C@H]2C(=O)N[C@@H](CCN)C(=O)NCC(N)=O)NC(=O)[C@H](CC(N)=O)NC(=O)[C@H](CCC(N)=O)NC1=O (H-CFIQNCP[Dab]G-NH2; disulfide 1-6)", 18],
  ["CC[C@H](C)[C@@H]1NC(=O)[C@H](Cc2ccccc2)NC(=O)[C@@H](N)CSSC[C@@H](C(=O)N2CCC[C@H]2C(=O)N[C@@H](CCCN)C(=O)NCC(N)=O)NC(=O)[C@H](CC(N)=O)NC(=O)[C@H](CCC(=O)N(C)OC)NC1=O (H-CFIE(N(Me)OMe)NCP[Orn]G-NH2; disulfide 1-6)", "> 140"],
  ["CC[C@H](C)[C@@H]1NC(=O)[C@H](Cc2ccccc2)NC(=O)[C@@H](N)CSSC[C@@H](C(=O)N2CCC[C@H]2C(=O)N[C@@H](CCCN)C(=O)NCC(N)=O)NC(=O)[C@H](CC(N)=O)NC(=O)[C@H](CC(=O)NO)NC1=O (H-CFID(NHOH)NCP[Orn]G-NH2; disulfide 1-6)", "> 2400"],
  ["CC[C@H](C)[C@@H]1NC(=O)[C@H](Cc2ccccc2)NC(=O)[C@@H](N)CSSC[C@@H](C(=O)N2CCC[C@H]2C(=O)N[C@@H](CCCN)C(=O)NCC(N)=O)NC(=O)[C@H](CC(N)=O)NC(=O)[C@H](CCC(=O)NOC)NC1=O (H-CFI[X4]NCP[Orn]G-NH2; disulfide 1-6)", "> 9000"],
  ["CC[C@H](C)[C@@H]1NC(=O)[C@H](Cc2cccnc2)NC(=O)[C@@H](N)CSSC[C@@H](C(=O)N2CCC[C@H]2C(=O)N[C@@H](CCN)C(=O)NCC(N)=O)NC(=O)[C@H](CC(N)=O)NC(=O)[C@H](CCC(N)=O)NC1=O (H-C[3Pal]IQNCP[Dab]G-NH2; disulfide 1-6)", "> 330"],
  ["CC[C@H](C)[C@@H]1NC(=O)[C@H](Cc2cccs2)NC(=O)[C@@H](N)CSSC[C@@H](C(=O)N2CCC[C@H]2C(=O)N[C@@H](CCCNC(C)C)C(=O)NCC(N)=O)NC(=O)[C@H](CC(N)=O)NC(=O)[C@H](CC(N)=O)NC1=O (H-C[2Thi]INNCP[Orn(iPr)]G-NH2; disulfide 1-6)", 61]
]}

###

Recorded Ratio EC50, one value per entry.
# Organism: Homo sapiens
# assayProtocol: Selectivity ratio of EC50 for human oxytocin receptor to EC50 for human vasopressin V1a receptor
Numbered stars: 1 amine (or outer) side, 2 acyl side, 3 side chain; on linkers, the order of the positions; unused ones are H or OH. Bridge positions count the residues as written; N and C are the ends. Square brackets hold non-standard residues; d marks the D form. Peptide text beside a SMILES is read from it. * marks the point of attachment. Orn(Me) = CN(CCC[C@H](N[*:1])C(=O)[*:2])[*:3]; Ala(4-thiazolyl) = N[C@@H](Cc1cscn1)C(=O)O; Orn = NCCC[C@H](N)C(=O)O; Dab = NCC[C@H](N)C(=O)O; X2 = CC(O)CN*
observationType: Ratio EC50

{"columns": ["compound", "result"],
 "data": [
  ["CC[C@H](C)[C@@H]1NC(=O)[C@H](Cc2cscn2)NC(=O)[C@@H](N)CSSC[C@@H](C(=O)N2CCC[C@H]2C(=O)N[C@@H](CCN)C(=O)NCC(N)=O)NC(=O)[C@H](CC(N)=O)NC(=O)[C@H](CCC(N)=O)NC1=O (H-C[Ala(4-thiazolyl)]IQNCP[Dab]G-NH2; disulfide 1-6)", 63],
  ["CC[C@H](C)[C@@H]1NC(=O)[C@H](Cc2ccccc2)NC(=O)[C@@H](N)CSSC[C@@H](C(=O)N2CCC[C@H]2C(=O)N[C@@H](CCCNC)C(=O)NCC(N)=O)NC(=O)[C@H](CC(N)=O)NC(=O)[C@H](CC(N)=O)NC1=O (H-CFINNCP[Orn(Me)]G-NH2; disulfide 1-6)", "> 4100"],
  ["CC[C@H](C)[C@@H]1NC(=O)[C@H](Cc2ccccc2)NC(=O)[C@@H](N)CSSC[C@@H](C(=O)N2CCC[C@H]2C(=O)N[C@@H](CCCN)C(=O)NCC(N)=O)NC(=O)[C@H](CC(N)=O)NC(=O)[C@H](CC(=O)NCC(C)O)NC1=O (stereo partly drawn) (H-CFID(X2)NCP[Orn]G-NH2; disulfide 1-6)", "> 1900"]
]}

###

# studySystem: Vasopressin V1b receptor (Homo sapiens, UniProt P47901)
# Sequence (P47901 whole entry): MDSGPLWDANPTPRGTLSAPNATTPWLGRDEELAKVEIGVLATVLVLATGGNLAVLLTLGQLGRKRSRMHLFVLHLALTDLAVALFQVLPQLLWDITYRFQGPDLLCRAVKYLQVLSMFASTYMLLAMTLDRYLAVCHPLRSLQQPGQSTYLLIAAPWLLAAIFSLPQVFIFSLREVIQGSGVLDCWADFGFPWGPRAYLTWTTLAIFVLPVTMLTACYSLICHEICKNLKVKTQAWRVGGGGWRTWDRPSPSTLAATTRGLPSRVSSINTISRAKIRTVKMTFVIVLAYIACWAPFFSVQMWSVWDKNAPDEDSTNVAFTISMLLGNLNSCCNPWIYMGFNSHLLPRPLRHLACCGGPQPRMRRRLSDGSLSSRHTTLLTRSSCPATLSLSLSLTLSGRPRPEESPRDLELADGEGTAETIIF
# assayProtocol: Agonist activity at recombinant human vasopressin V1b receptor expressed in Flp-In-293 cells by luciferase reporter gene assay
# Format: functional, cell-based
# assaySetup: read-out: EC50
Bridge positions count the residues as written; N and C are the ends. Square brackets hold non-standard residues; d marks the D form. Peptide text beside a SMILES is read from it. Orn(iPr) = CC(C)NCCC[C@H](N)C(=O)O; Cha = N[C@@H](CC1CCCCC1)C(=O)O; Orn = NCCC[C@H](N)C(=O)O; Dab = NCC[C@H](N)C(=O)O
observationType: EC50 (nM)

{"columns": ["compound", "studySystem", "observationType", "measuredNumber"],
 "data": [
  ["CC[C@H](C)[C@@H]1NC(=O)[C@H](Cc2ccccc2)NC(=O)[C@@H](N)CSSC[C@@H](C(=O)N2CCC[C@H]2C(=O)N[C@@H](CCCN)C(=O)NCC(N)=O)NC(=O)[C@H](CC(N)=O)NC(=O)[C@H](CCC(N)=O)NC1=O (H-CFIQNCP[Orn]G-NH2; disulfide 1-6)", "Vasopressin V1b receptor (Homo sapiens, UniProt P47901)", "EC50", 25],
  ["CC[C@H](C)[C@@H]1NC(=O)[C@H](CC2CCCCC2)NC(=O)[C@@H](N)CSSC[C@@H](C(=O)N2CCC[C@H]2C(=O)N[C@@H](CCN)C(=O)NCC(N)=O)NC(=O)[C@H](CC(N)=O)NC(=O)[C@H](CC(N)=O)NC1=O (H-C[Cha]INNCP[Dab]G-NH2; disulfide 1-6)", "Vasopressin V1b receptor (Homo sapiens, UniProt P47901)", "EC50", 18],
  ["CC[C@H](C)[C@@H]1NC(=O)[C@H](Cc2ccccc2)NC(=O)[C@@H](N)CSSC[C@@H](C(=O)N2CCC[C@H]2C(=O)N[C@@H](CCCNC(C)C)C(=O)NCC(N)=O)NC(=O)[C@H](CC(N)=O)NC(=O)[C@H](CCC(N)=O)NC1=O (H-CFIQNCP[Orn(iPr)]G-NH2; disulfide 1-6)", "Vasopressin V1b receptor (Homo sapiens, UniProt P47901)", "EC50", 44]
]}
